// data source = patent US20100137346A1

assay: Chelator-induced uranium excretion (urine + bile, 24 h) in bile duct-cannulated rat model; format: in vivo; conditions: 300 μmol/kg PO Immediate
Please respond with reported % of Administered Dose Cleared for every item in the list.
Form field: result (number plus unit)

Below: 3 compounds and their reported % of Administered Dose Cleared.
O=C(O)CN(CCN(CC(=O)O)CC(=O)O)CCN(CC(=O)O)CC(=O)O [DTPA, diethylenetriaminepentaacetic acid, reference compound]	8%
COc1ccc(C2=N[C@@H](C(=O)O)CS2)c(O)c1 [drawing 12]	23%
COc1ccc(C2=N[C@@H](C(=O)O)CS2)c(O)c1 [Compound 11]	23%

Please go through the list and note % of Administered Dose Cleared for each compound.
1. O=C(O)CN(CCN(CC(=O)O)CC(=O)O)CCN(CC(=O)O)CC(=O)O [drawing 16]
2. O=C(O)CN(CCN(CC(=O)O)CC(=O)O)CCN(CC(=O)O)CC(=O)O [drawing 4]
3. COc1ccc(C2=N[C@H](C(=O)O)CS2)c(O)c1

1: 8%; 2: 6%; 3: 23%
